Recorded values, source patent EP0810221A1.

Assay: Acute toxicity test, oral
Conditions: both sexes, rat, in vivo, orally administered, suspended in 0.5% aqueous CMC-Na, SD male and female rats, observed for seven days
Text: Compounds of the present invention was suspended in 0.5% aqueous solution of CMC-Na and the suspensions were orally administered to SD male and female rats.
property-name: LD50 at 7 days

Kindly note the recorded LD50 at 7 days for CC(=O)O[C@@H]1OCC[C@@H]1NC(=O)[C@H](CC(C)C)NS(=O)(=O)c1ccc(C)cc1 , which is < 2000 mg/kg

Kindly note the recorded LD50 at 7 days for CC(=O)O[C@@H]1OCC[C@@H]1NC(=O)[C@H](CC(C)C)NS(=O)(=O)c1ccccc1 , which is < 2000 mg/kg

Kindly note the recorded LD50 at 7 days for CC(=O)O[C@@H]1OCC[C@@H]1NC(=O)[C@H](CC(C)C)NC(=O)c1ccccc1F , which is < 2000 mg/kg

* * *

Biological target: m-Calpain (Rattus norvegicus)
Construct: m-Calpain was purified from brains of rats; from tissue; host or cells: rat brain
Test: Inhibitory activity against calpain (m-Calpain purified from brains of rats)
Format: biochemical
Conditions: Inhibitory activity against calpain (continuation of Table-6)
Method: m-Calpain was purified from brains of rats according to a method described in a literature (Journal of Biological Chemistry, Vol. 259, p. 3210, 1984), and the inhibitory activity was determined in a manner according to a published method (Journal of Biological Chemistry, Vol. 259, p. 12489, 1984).
pIC50: −log10 of the molar value.
Each entry gets no if its pIC50 stays under 6, and yes if its pIC50 is 6 or above.

hey, is pIC50 for this one >= 6? CC(C)C[C@H](NS(=O)(=O)c1ccc(Br)cc1)C(=O)N[C@H]1CCOC1O (stereo partly shown)
yes

* * *

target: m-Calpain (Rattus norvegicus); construct: m-Calpain was purified from brains of rats; from tissue; host or cells: rat brain; experiment: Inhibitory activity against calpain (m-Calpain purified from brains of rats); format: biochemical; conditions: Inhibitory activity against calpain (continuation of Table-6)
Reported pIC50 values follow for various molecules
Note: pIC50 values are expressed as the negative base-10 logarithm of concentration in M.

Some entries whose results are on file:
Kindly note the recorded pIC50 for CC(C)C[C@H](NC(=O)[C@H](CC(C)C)NS(=O)(=O)c1ccccc1)C(=O)N[C@H]1CCOC1O (stereo partly drawn) , which is 6.11

Kindly note the recorded pIC50 for CC(C)C[C@H](NC(=O)c1ccco1)C(=O)N[C@H]1CCOC1O (stereo partly drawn) , which is 6.46

Kindly note the recorded pIC50 for CC(C)C[C@H](NC(=O)c1ccc2c(c1)OCO2)C(=O)N[C@H]1CCOC1O (stereo partly drawn) , which is 6.36

Next:
Kindly note the recorded pIC50 for COc1ccc(C=CC(=O)N[C@@H](CC(C)C)C(=O)N[C@H]2CCOC2O)cc1 (stereo partly drawn) , which is 6.15

Kindly note the recorded pIC50 for CC(C)C[C@H](NC(=O)C1CCc2ccccc2O1)C(=O)N[C@H]1CCOC1O (stereo partly drawn) , which is 6.46

Kindly note the recorded pIC50 for CC(C)C[C@H](NS(=O)(=O)c1cccnc1)C(=O)N[C@H]1CCOC1O (stereo partly drawn) , which is 6.00

Kindly note the recorded pIC50 for CC(C)C[C@H](NS(=O)(=O)c1ccccc1)C(=O)N[C@H]1C(C)COC1O (stereo partly drawn) , which is 5.55

Kindly note the recorded pIC50 for CC(C)C[C@H](NC(=O)c1cccc2ccccc12)C(=O)N[C@H]1CCOC1O (stereo partly drawn) , which is 6.40

Kindly note the recorded pIC50 for Cc1ccc(S(=O)(=O)N[C@@H](CC(C)C)C(=O)N[C@H]2CCOC2O)cc1 (stereo partly drawn) , which is 6.30

Kindly note the recorded pIC50 for CC(C)C[C@H](NS(=O)(=O)c1ccc(C(C)(C)C)cc1)C(=O)N[C@H]1CCOC1O (stereo partly drawn) , which is 6.41

Kindly note the recorded pIC50 for Cc1cc(C)c(S(=O)(=O)N[C@@H](CC(C)C)C(=O)N[C@H]2CCOC2O)c(C)c1 (stereo partly drawn) , which is 6.35

* * *

Reported pIC50 values follow for various compounds
molecular target: m-Calpain (Rattus norvegicus, UniProt Q07009); construct: m-Calpain was purified from brains of rats; from tissue; host or cells: rat brain; experiment: Inhibitory activity against calpain (m-Calpain purified from brains of rats); assay type: biochemical; details: Inhibitory activity against calpain (continuation of Table-6)
Sequence (Q07009 20-700 limits assumed): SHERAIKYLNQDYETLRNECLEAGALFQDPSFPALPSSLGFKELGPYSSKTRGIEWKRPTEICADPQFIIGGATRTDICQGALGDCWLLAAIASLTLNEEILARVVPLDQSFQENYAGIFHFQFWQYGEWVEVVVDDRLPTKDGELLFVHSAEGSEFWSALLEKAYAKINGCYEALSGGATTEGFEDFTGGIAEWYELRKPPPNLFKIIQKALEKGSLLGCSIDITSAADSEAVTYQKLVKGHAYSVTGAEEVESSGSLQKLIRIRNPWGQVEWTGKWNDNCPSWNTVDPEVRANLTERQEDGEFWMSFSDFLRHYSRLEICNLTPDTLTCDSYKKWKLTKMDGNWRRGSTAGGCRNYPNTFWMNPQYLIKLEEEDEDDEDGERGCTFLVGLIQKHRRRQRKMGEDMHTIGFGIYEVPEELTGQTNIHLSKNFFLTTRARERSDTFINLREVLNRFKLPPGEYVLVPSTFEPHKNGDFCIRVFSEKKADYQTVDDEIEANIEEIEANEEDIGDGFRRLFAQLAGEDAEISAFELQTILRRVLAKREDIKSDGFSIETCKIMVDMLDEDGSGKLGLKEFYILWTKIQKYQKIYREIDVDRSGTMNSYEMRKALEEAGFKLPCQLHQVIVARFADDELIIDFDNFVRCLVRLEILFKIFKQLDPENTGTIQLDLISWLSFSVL
Sequence (Q64537 whole entry partner): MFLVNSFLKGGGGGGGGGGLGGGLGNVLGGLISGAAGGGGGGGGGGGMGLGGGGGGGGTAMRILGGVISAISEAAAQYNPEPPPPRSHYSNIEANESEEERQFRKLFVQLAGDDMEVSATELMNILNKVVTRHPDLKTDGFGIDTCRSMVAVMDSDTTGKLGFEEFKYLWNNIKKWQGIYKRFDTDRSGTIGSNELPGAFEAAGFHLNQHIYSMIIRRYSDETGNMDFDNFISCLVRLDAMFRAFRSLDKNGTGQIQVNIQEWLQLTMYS
Note: pIC50 values are expressed as the negative base-10 logarithm of concentration in M.

Kindly note the recorded pIC50 for CC(C)C[C@H](NS(=O)(=O)c1ccc(Cl)cc1)C(=O)N[C@H]1CCOC1O (stereo partly shown) [Example 68] , which is 6.25

Kindly note the recorded pIC50 for COc1ccc(S(=O)(=O)N[C@@H](CC(C)C)C(=O)N[C@H]2CCOC2O)cc1 (stereo partly shown) [Example 73] , which is 6.13

Kindly note the recorded pIC50 for CC(C)C[C@H](NC(=O)OCc1ccccc1)C(=O)N[C@H]1CCCOC1O (stereo partly shown) [Example 81] , which is 5.81

Moving on to the next compound.
Kindly note the recorded pIC50 for CC(C)C[C@H](NS(=O)(=O)c1cccc2ccccc12)C(=O)N[C@H]1CCOC1O (stereo partly shown) [Example 75] , which is 6.42
